SYSTEM TESTED: Glucose-6-phosphate 1-dehydrogenase (Homo sapiens, UniProt P11413)
Sequence (P11413 whole entry): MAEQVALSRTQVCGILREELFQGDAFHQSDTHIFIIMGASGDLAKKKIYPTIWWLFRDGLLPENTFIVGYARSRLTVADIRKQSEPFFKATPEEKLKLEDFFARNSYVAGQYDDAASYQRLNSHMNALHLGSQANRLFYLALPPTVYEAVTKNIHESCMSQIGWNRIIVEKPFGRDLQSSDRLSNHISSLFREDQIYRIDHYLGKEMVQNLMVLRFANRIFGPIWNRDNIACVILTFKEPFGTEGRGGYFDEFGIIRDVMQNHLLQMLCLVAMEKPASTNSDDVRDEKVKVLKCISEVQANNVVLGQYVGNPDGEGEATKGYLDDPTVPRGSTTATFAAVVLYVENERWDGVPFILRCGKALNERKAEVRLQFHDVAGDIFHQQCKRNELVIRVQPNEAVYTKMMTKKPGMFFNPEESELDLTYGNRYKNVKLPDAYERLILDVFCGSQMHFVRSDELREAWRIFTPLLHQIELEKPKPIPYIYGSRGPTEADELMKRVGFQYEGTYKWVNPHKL
EXPERIMENT DESCRIPTION: human G6PD enzyme inhibitors, dose response, selectivity assay for P. falciparum G6PD inhibitor project, biochemical, fluorescence (AID 504792)
Type: functional
Active and inactive are the calls of the source. Rule as the data show it: active = IC50 of 20 µM or less and inactive = more.
PROPERTY NAME: IC50

INSERT INTO results (chemical_smiles, property_name, val) VALUES
  ('Cc1ccccc1OCC(=O)N/N=C/c1ccc(Sc2nc3ccccc3s2)o1', 'IC50', '> 80 µM (inactive)'),
  ('Nc1c(O)cccc1C(=O)O', 'IC50', '24 µM (inactive)'),
  ('Cc1ccc(S(=O)(=O)C=CS(=O)(=O)c2ccc(C)cc2)cc1', 'IC50', '> 80 µM (inactive)');

Glucose-6-phosphate 1-dehydrogenase (Homo sapiens, UniProt P11413) IC50 of `Cc1ccc(/C=C2\C(=O)NC(=S)N(c3ccccc3F)C2=O)s1` is > 80 µM (inactive)

Cited source: ChEMBL document CHEMBL1201862
